test system: SR leukemia; assay: NCI tumour cell line growth inhibition, 48 h; in the data active = GI50 below about 0.43 µM; inactive = the rest
Possible outcomes: active, inactive

- Compound: "O=C1c2ccccc2C(=Cc2ccccc2)c2ccccc21"
  Class name: "inactive"
- Compound: "CCOC(=O)/C=C/c1cc2cc(-c3csc4ccccc34)ccc2[nH]1"
  Class name: "inactive"
- Compound: "CCOC(=O)c1c2c(n(Cc3ccccc3)c1C)-c1ccccc1C(=O)C2=O"
  Class name: "inactive"
- Compound: "CC/C=C\\C/C=C\\C[C@H](O)C/C=C1/C(=O)C=C[C@@H]1C/C=C\\CCCC(=O)O"
  Class name: "inactive"
- Compound: "CO/N=C(\\C)c1cccc(Nc2cc(-c3ccccc3)nc3c(O)cccc23)c1"
  Class name: "inactive"
- Compound: "CC(=O)OCC(=O)O[C@@H]1C[C@]2(C(C)C)O[C@@]1(C)[C@@H]1CC[C@@H](C)[C@H]1[C@@H]2OC(=O)/C=C/c1ccccc1"
  Class name: "inactive"
- Compound: "C=CC[P+](c1ccccc1)(c1ccccc1)c1ccccc1"
  Class name: "inactive"
- Compound: "CN(C)c1ncnc2c1nnn2C1OC(CO)C(O)C1O (stereo not given)"
  Class name: "active"
- Compound: "CC1CCN(CCCCCOc2ccc3oc4cc(Cl)ccc4c(=O)c3c2)CC1"
  Class name: "inactive"
- Compound: "Oc1c(CN2CCCC2)cc(COCc2ccc(Br)cc2)c2cccnc12"
  Class name: "active"
- Compound: "CC(=O)O[C@H](C[C@H](C(C)C)N(C)C(=O)[C@@H](NC(=O)[C@H]1CCCCN1C)C(C)C)c1nc(C(=O)N[C@@H](Cc2ccccc2)C[C@H](C)C(=O)O)c(C(C)C)s1"
  Class name: "active"
- Compound: "O=C(Nc1ccc(CN2CCOCC2)cc1)c1[nH]ncc1Nc1ncnc2sccc12"
  Class name: "active"
- Compound: "COc1ccc(-c2nn(-c3cccc(NC(=O)c4ccc5c(c4)OCCO5)c3)cc2-c2ccncc2)cc1Cl"
  Class name: "inactive"
- Compound: "Cc1cccc(C(=O)/C=C/SC(=NC#N)SCc2ccccc2)c1"
  Class name: "inactive"
- Compound: "O=[N+]([O-])c1ccc2c(N3CCC(CCCC4CCN(c5ncnc6cc([N+](=O)[O-])ccc56)CC4)CC3)ncnc2c1"
  Class name: "inactive"
- Compound: "COC(=O)c1ccc(NC(=O)Nc2ccc3oc(=O)c4ccccc4c3c2)cc1"
  Class name: "inactive"
- Compound: "O=C(CSC(c1ccccc1)c1ccccc1)N/N=C/c1cccc(Cl)c1"
  Class name: "inactive"
- Compound: "CN(C)CCOc1ccc(/C(=C(/CCCl)c2ccccc2)c2ccccc2)cc1"
  Class name: "inactive"
- Compound: "O=C(CN1CCN(c2ccc(Cl)cc2)CC1)N1CCN(c2nnc(-c3ccc(Cl)cc3)c(-c3ccc(Cl)cc3)n2)CC1"
  Class name: "inactive"
- Compound: "O=C(Nc1ccc(Cl)cc1F)c1cc(I)ccc1O"
  Class name: "inactive"

----------
tested on: HCT-15 colon; assay: NCI tumour cell line growth inhibition, 48 h
Endpoint: TGI

- Molecule: "CN(C)c1ccc(/C=C2\\N=C(c3ccc([N+](=O)[O-])cc3)OC2=O)cc1"
  Endpoint: "TGI"
  Test value: "45.4 µM"
- Molecule: "CNC(=O)c1ccc2cc(C3(O)CCn4cncc43)ccc2c1 (stereo unspecified)"
  Endpoint: "TGI"
  Test value: "> 100 µM"
- Molecule: "CN[C@@H](C)[C@@H](N)c1ccccc1"
  Endpoint: "TGI"
  Test value: "> 100 µM"
- Molecule: "CN(C)CCNC(=O)Cn1cc([N+](=O)[O-])c(=O)c2ccccc21"
  Endpoint: "TGI"
  Test value: "> 100 µM"
- Molecule: "COc1ccc(C(=O)C(C(=O)C(=O)Nc2ccc(Cl)c(Cl)c2)c2ccc(OC)cc2)cc1 (stereo unspecified)"
  Endpoint: "TGI"
  Test value: "> 100 µM"
- Molecule: "O=C1C(Cl)=C(N2C(=O)CCCC2=O)C(=O)c2ccccc21"
  Endpoint: "TGI"
  Test value: "25.6 µM"
- Molecule: "CC(=O)OCC(=O)O[C@@H]1C[C@]2(C(C)C)O[C@@]1(C)[C@@H]1CC[C@@H](C)[C@H]1[C@@H]2OC(=O)/C=C/c1ccccc1"
  Endpoint: "TGI"
  Test value: "> 100 µM"
- Molecule: "CCOC(=O)C(NCc1ccc2c(c1)OCO2)(NC(=O)c1ccccc1)C(F)(F)F (stereo unspecified)"
  Endpoint: "TGI"
  Test value: "> 100 µM"
- Molecule: "CC(=O)C1=C(C)Cn2c(=O)c3ccccc3c(=O)n2C1"
  Endpoint: "TGI"
  Test value: "> 100 µM"
- Molecule: "CC(C)OC(=O)C1=C(O)c2ccccc2S(=O)(=O)N1"
  Endpoint: "TGI"
  Test value: "> 100 µM"
- Molecule: "O=C1c2ccccc2C(=Cc2ccccc2)c2ccccc21"
  Endpoint: "TGI"
  Test value: "21.8 µM"
- Molecule: "O=C(O)[C@@H]1CCC(=O)N1C(c1ccc2c(c1)OCO2)c1ccc2c(c1)OCO2"
  Endpoint: "TGI"
  Test value: "> 100 µM"
- Molecule: "O=C(Nc1ccc(Oc2ccc3nc(NC(=O)c4ccccc4)[nH]c3c2)cc1)Nc1cc(C(F)(F)F)ccc1F"
  Endpoint: "TGI"
  Test value: "> 25 µM"
- Molecule: "c1ccc(C2SCc3nc4cc5ccccc5cc4n32)cc1 (stereo unspecified)"
  Endpoint: "TGI"
  Test value: "> 100 µM"
- Molecule: "Cn1c(O)c(C(/C=C/c2ccccc2)=NCCN=C(/C=C/c2ccccc2)c2c(O)n(C)c(=O)n(C)c2=O)c(=O)n(C)c1=O"
  Endpoint: "TGI"
  Test value: "> 50 µM"
- Molecule: "O=C(Nc1cccc(Oc2nnc(Cl)c3ccccc23)c1)Nc1ccc(Cl)c(C(F)(F)F)c1"
  Endpoint: "TGI"
  Test value: "3.53 µM"
- Molecule: "O=C(CSC(c1ccccc1)c1ccccc1)N/N=C/c1cccc(Cl)c1"
  Endpoint: "TGI"
  Test value: "38.6 µM"
- Molecule: "O=C(O)c1cc2cc(c1)N=Cc1ccccc1OCc1cccc(n1)COc1ccccc1C=N2"
  Endpoint: "TGI"
  Test value: "> 25 µM"
- Molecule: "Cc1cc2c(cc1C)[n+](=O)c(C#N)c(Cl)n2[O-]"
  Endpoint: "TGI"
  Test value: "16.7 µM"
- Molecule: "Cc1ccc2nc(-c3ccc(-n4c(C)nc(=O)c(-c5ccc(F)cc5)c4C)cc3)sc2c1"
  Endpoint: "TGI"
  Test value: "34.4 µM"
- Molecule: "O=P1(c2ccccc2)c2ccccc2CCc2ccccc21"
  Endpoint: "TGI"
  Test value: "> 100 µM"
